Here's what we have: Ki numbers for UniProtKB P15917.
Numeric answer only, unit nM assumed.

A selection of reference data follows.
INSERT INTO assay_data (molecule, assayed_system, units_text, reported) VALUES
  ('Cc1cc(N[C@H](CCCCN(Cc2cc(C)c(F)c(C)c2)Cc2cc(C)c(F)c(C)c2)C(=O)NO)ccc1F', 'UniProtKB P15917', 'nM', 5200),
  ('Cc1cc(N[C@H](CCCCNCc2ccc3c(c2)OCO3)C(=O)NO)ccc1F', 'UniProtKB P15917', 'nM', 170),
  ('CCCCC(Nc1ccc(OC)c(C)c1)C(=O)NO (centres unmarked)', 'UniProtKB P15917', 'nM', 19300),
  ('CNc1cccc(S(=O)(=O)NCCCC[C@@H](Nc2cc(C)c(F)c(C)c2)C(=O)NO)c1', 'UniProtKB P15917', 'nM', 590),
  ('Cc1cc(N[C@H](CCCCNCc2ccc(Cl)s2)C(=O)NO)ccc1F', 'UniProtKB P15917', 'nM', 60);

Ask: Look up and report measured Ki (UniProtKB P15917) for the following molecule: CCCCC(Nc1cc(C)cc(Cl)c1)C(=O)NO (centres unmarked)
Result: 2200

Ask: Look up and report measured Ki (UniProtKB P15917) for the following molecule: "Cc1cc(N[C@H](CCCCNCc2cccc(-c3ccccc3)c2)C(=O)NO)ccc1F"
Result: 120

###

target: Lethal factor protease (Bacillus anthracis, UniProt P15917)
Sequence (P15917 34-809 limits assumed): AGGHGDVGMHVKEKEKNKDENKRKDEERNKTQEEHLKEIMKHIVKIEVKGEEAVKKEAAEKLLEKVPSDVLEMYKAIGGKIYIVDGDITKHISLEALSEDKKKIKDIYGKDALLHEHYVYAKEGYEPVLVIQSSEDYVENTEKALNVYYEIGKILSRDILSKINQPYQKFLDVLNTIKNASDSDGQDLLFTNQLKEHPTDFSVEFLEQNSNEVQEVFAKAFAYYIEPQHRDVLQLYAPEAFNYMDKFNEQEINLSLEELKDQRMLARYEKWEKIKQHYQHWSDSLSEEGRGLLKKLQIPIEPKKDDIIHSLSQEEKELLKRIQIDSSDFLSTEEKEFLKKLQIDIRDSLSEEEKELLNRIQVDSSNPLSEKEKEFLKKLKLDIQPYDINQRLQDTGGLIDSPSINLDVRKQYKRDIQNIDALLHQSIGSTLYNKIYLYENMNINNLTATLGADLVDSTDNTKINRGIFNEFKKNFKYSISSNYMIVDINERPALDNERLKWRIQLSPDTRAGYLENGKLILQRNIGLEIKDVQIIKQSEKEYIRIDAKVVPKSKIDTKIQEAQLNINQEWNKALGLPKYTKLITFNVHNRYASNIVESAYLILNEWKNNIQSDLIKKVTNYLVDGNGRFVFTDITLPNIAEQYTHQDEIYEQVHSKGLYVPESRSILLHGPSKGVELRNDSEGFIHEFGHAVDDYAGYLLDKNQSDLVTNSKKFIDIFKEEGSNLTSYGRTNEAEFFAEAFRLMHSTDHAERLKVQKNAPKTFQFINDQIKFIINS
# label = Yes if Ki < 4000 nM else No

Ask: Is the reported Ki for "Cc1cc(N[C@H](CCCCNCc2ccc(Cl)cc2)C(=O)NO)ccc1F" strictly below 4000 nM?
Result: Yes

Ask: Is the reported Ki for "Cc1cc(CNCCCC[C@@H](Nc2cc(C)c(F)c(C)c2)C(=O)NO)cc(C)c1F" strictly below 4000 nM?
Result: Yes

Ask: Is the reported Ki for CCCCC(Nc1cccc(F)c1)C(=O)NO (stereo not drawn) strictly below 4000 nM?
Result: No

Ask: Is the reported Ki for "Cc1cc(N[C@@H](C)C(=O)NO)ccc1F" strictly below 4000 nM?
Result: No

Ask: Is the reported Ki for "Cc1cc(N[C@H](CCCCNC(=O)CCCc2ccccc2)C(=O)NO)ccc1F" strictly below 4000 nM?
Result: Yes

Ask: Is the reported Ki for "Cc1cc(N[C@H](CCCCN(Cc2ccc(F)cc2)Cc2ccc(F)cc2)C(=O)NO)cc(C)c1F" strictly below 4000 nM?
Result: Yes

Ask: Is the reported Ki for "Cc1cc(CCCCCC[C@@H](Nc2cc(C)c(F)c(C)c2)C(=O)NO)ccc1F" strictly below 4000 nM?
Result: No

Ask: Is the reported Ki for CCCCC(Nc1cccc(C#N)c1)C(=O)NO (stereo not drawn) strictly below 4000 nM?
Result: No

###

target: Lethal factor protease (Bacillus anthracis)
Grouping rule (Ki): bottom bin = under 1000 nM, middle bin = from 1000 nM up to 7000 nM, top bin = 7000 nM and over

Before answering, review these 5 worked examples.
INSERT INTO results (molecule, assigned_class) VALUES
  ('CCCCC(Nc1cc(Cl)cc(Cl)c1)C(=O)NO (stereo not shown)', 'top bin'),
  ('Cc1cccc(CN(CCCC[C@@H](Nc2cc(C)c(F)c(C)c2)C(=O)NO)Cc2cccc(C)c2)c1', 'middle bin'),
  ('Cc1cc(N[C@H](CCCCNCc2cc(C)c(OCc3ccccc3)c(C)c2)C(=O)NO)ccc1F', 'bottom bin'),
  ('CCCCC(Nc1ccc(F)c(OC)c1)C(=O)NO (stereo not shown)', 'top bin'),
  ('CCCCC(Nc1cc(C)c(OC)c(C)c1)C(=O)NO (stereo not shown)', 'top bin');

Ask: Lab log: "Cc1cc(N[C@H](CCCCNC(=O)OCc2ccccc2)C(=O)NO)cc(C)c1F" — assign Ki category
Result: bottom bin

Ask: Lab log: "Cc1cc(N[C@H](CCCCNS(=O)(=O)c2cccc(N(C)C)c2)C(=O)NO)cc(C)c1F" — assign Ki category
Result: bottom bin

Ask: Lab log: "Cc1cc(C(=O)NCCCC[C@@H](Nc2cc(C)c(F)c(C)c2)C(=O)NO)ccc1F" — assign Ki category
Result: bottom bin

Ask: Lab log: "Cc1cc(N[C@H](CCCCNC(=O)Cc2ccccc2)C(=O)NO)cc(C)c1F" — assign Ki category
Result: middle bin

Ask: Lab log: "Cc1cc(N[C@H](CC2CCCCC2)C(=O)NO)cc(C)c1F" — assign Ki category
Result: middle bin

Ask: Lab log: "Cc1cc(N[C@H](CCCCNC(=O)C(c2ccccc2)c2ccccc2)C(=O)NO)cc(C)c1F" — assign Ki category
Result: middle bin

Ask: Lab log: "Cc1cc(N[C@H](CCCCNC(=O)OC(C)(C)C)C(=O)NO)ccc1F" — assign Ki category
Result: middle bin

Ask: Lab log: "Cc1cc(CN(CCCC[C@@H](Nc2ccc(F)c(C)c2)C(=O)NO)Cc2ccc(F)c(C)c2)ccc1F" — assign Ki category
Result: middle bin

Ask: Lab log: CCCCC(Nc1cc(OC)cc(OC)c1)C(=O)NO (stereo not shown) — assign Ki category
Result: top bin

src = patent US8242174B2
